# Assay system: KRas WT (Homo sapiens, UniProt P01116);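 further: binding to KRas read as TR-FRET displacement after a one-hour room-temperature incubation, IC50 derived from percent-of-control values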
# Sequence (P01116 1-169 isoform P01116-2): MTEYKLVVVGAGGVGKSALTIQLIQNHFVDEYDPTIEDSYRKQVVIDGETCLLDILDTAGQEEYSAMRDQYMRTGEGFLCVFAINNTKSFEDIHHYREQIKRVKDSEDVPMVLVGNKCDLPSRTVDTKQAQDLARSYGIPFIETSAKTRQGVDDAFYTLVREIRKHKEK
Mark criterion met for IC50 under 4000 nM, criterion not met if at or over.

INSERT INTO measurements (compound, category) VALUES
  ('OC1CC2CC1CN(c1nc(OCC34CCCN3CCC4)nc3c(F)c(-c4cccc5cccc(F)c45)ncc13)C2 (centres unmarked) [Example 81]', 'criterion met'),
  ('Fc1c(-c2cccc3cccc(F)c23)ncc2c(N3CCCC4(COC4)C3)nc(OCC34CCCN3CCC4)nc12 [Example 220]', 'criterion not met'),
  ('Cc1cc2[nH]ncc2c(-c2ncc3c(N4CCCC(C)(O)C4)nc(OCC45CCCN4CCC5)nc3c2F)c1C1CC1 (centres unmarked) [Example 144]', 'criterion met'),
  ('O=C1CC2(CCCN(c3nc(OCC45CCCN4CCC5)nc4c(F)c(-c5cccc6cccc(F)c56)ncc34)C2)CN1 (centres unmarked) [Example 20]', 'criterion met'),
  ('O=C1NC2(CCN(c3nc(OCC45CCCN4CCC5)nc4c(F)c(-c5cccc6cccc(F)c56)ncc34)CC2)CO1 [Example 224]', 'criterion not met');

Consider the additional compound presented here.
Is it true that IC50 reported for Fc1c(-c2cccc3cccc(F)c23)ncc2c(NCc3ncc4cc[nH]c4n3)nc(OCC34CCCN3CCC4)nc12 [Example 92] is less than 4000 nM? criterion not met

---

# System: pERK in H460 cells
# Measurement description: Inhibition of KRas phosphorylation of ERK (Cisbio HTRF pERK assay)
# Condition info: Homo sapiens, NCI-H460, read-out: Inhibition (HTRF IC50) of KRas-mediated Phosphorylation of ERK, H460
Measurement label: IC50
Could you kindly put the unit after your number?

The cases that follow already have their IC50 on record.
INSERT INTO results (compound, assay_system, result) VALUES
  ('CCc1c(F)ccc2cc(O)cc(-c3ncc4c(N5CCCn6nc(C(=O)N7CCN(C)CC7)cc6C5)nc(OC[C@@]56CCCN5C[C@H](F)C6)nc4c3F)c12', 'pERK in H460 cells', '1570 nM'),
  ('Oc1cc(-c2ncc3c(N4CC5CC(O)CC4C5)nc(OC[C@@]45CCCN4C[C@H](F)C5)nc3c2F)c2c(Br)c(F)ccc2c1 (stereo partly drawn)', 'pERK in H460 cells', '182 nM'),
  ('O=C1CC2(CCCN(c3nc(OC[C@@]45CCCN4C[C@H](F)C5)nc4c(F)c(-c5cc(O)cc6ccc(F)c(F)c56)ncc34)C2)N1 (stereo partly drawn)', 'pERK in H460 cells', '639 nM'),
  ('O=C1C[C@]2(CCCN(c3nc(OC[C@@]45CCCN4C[C@H](F)C5)nc4c(F)c(-c5cc(O)cc6ccc(F)c(Cl)c56)ncc34)C2)N1', 'pERK in H460 cells', '283 nM');

Here are 2 compounds. What values of IC50 were reported for them?
1. CCc1c(F)ccc2cc(O)cc(-c3ncc4c(N5CCOC[C@@](C)(O)C5)nc(OCC5(CN(C)C)CC5)nc4c3F)c12
2. CCc1c(F)ccc2cc(O)cc(-c3ncc4c(N5CCCC6(C5)CS(=O)(=O)C6)nc(OC[C@@]56CCCN5C[C@H](F)C6)nc4c3F)c12

1: 85 nM; 2: 827 nM
